# STUDY SYSTEM: S. pyogenes SKKanGAS, kanamycin survival, BacTiterGlo, 6 h
# PROCEDURE TEXT: S. pyogenes SKKanGAS kanamycin growth inhibitors – SKKanGAS strain, luminescence, dose confirmation, streptokinase promoter inhibitor project, dose response (AID 1902);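 note: lower survival reflects blocked streptokinase promoter driving kanamycin resistance gene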
EXPERIMENTAL READOUT: EC50

See these solved cases before continuing.
MOLECULE: CCOC(=O)c1ccc(Oc2cn[nH]c2-c2ccc(OCC(=O)NN)cc2O)cc1
EC50: 0.357 µM
--
MOLECULE: CC/C(=N\NC(=S)Nc1cccc(C)c1)c1ccccc1
EC50: 7.96 µM
--
MOLECULE: O=C(COc1ccc(Cl)cc1Cl)Nc1ccc(C(=O)Nc2ccccc2C(=O)O)cc1
EC50: 2.3 µM
--
MOLECULE: Oc1c(C(Nc2ccccn2)c2cccnc2)cc(Cl)c2cccnc12 (stereo unspecified)
EC50: 2.46 µM
--
MOLECULE: CCCOc1ccc(/C(O)=C2/C(=O)C(=O)N(c3ccccn3)C2c2ccc(OC)cc2)cc1C (stereo unspecified)
EC50: 6.28 µM

query: # input molecule: Cc1sc2ncnc(N/N=C/c3ccccc3O)c2c1C ; wanted: its EC50
result: 4.09 µM
